- Study Target: T1, Epidermal growth factor receptor 2 (HER2 or ErbB-2) on HER2+ SKOV3 cells (human, UniProt P04626 23-1255)
- T1 construct: whole, on cells; Only claim 72 calls it 'human epidermal growth factor receptor 2 (HER2)'
- Assay Name: split-luciferase complementation on HER2+ SKOV3 cells (lysates, washed); paired with 73JH-β9
Readout Kind: Signal-to-Background (Ratio of Relative Luminescence Units) (ratio)

1. β10*-G3 (designed binder, DARPin fusion expressed in E. coli, used as lysate; also called DARPin G3 with N-terminal β10*) MVSGWRLFKKISGGGSGHHHHHHHHGGGSGDLGKKLLEAARAGQDDEVRILMANGADVNAKDEYGLTPLYLATAHGHLEIVEVLLKNGADVNAVDAIGFTPLHLAAFIGHLEIAEVLLKHGADVNAQDKFGKTAFDISIGNGNEDLAEILQKLN: 21
2. G3-β10* (designed binder, DARPin fusion expressed in E. coli; Used as lysate in the screen and later IMAC-purified; also called DARPin G3 with C-terminal β10*) MRGSHHHHHHGSDLGKKLLEAARAGQDDEVRILMANGADVNAKDEYGLTPLYLATAHGHLEIVEVLLKNGADVNAVDAIGFTPLHLAAFIGHLEIAEVLLKHGADVNAQDKFGKTAFDISIGNGNEDLAEILQKLNGGGSGGGGSGGGGSGVSGWRLFKKIS: 47
3. β10*-L73J (Fab, V domains shown, Fab fusion expressed in E. coli, used as lysate; also called 73J Fab with β10* at the N-terminus of the light chain) VH: EVQLVESGGGLVQPGGSLRLSCAASGFNLYSSYIHWVRQAPGKGLEWVASIYPYSSYTSYADSVKGRFTISADTSKNTAYLQMNSLRAEDTAVYYCARYYGFAMDYWGQGTLVTVSS VL: DIQMTQSPSSLSASVGDRVTITCRASQSVSSAVAWYQQKPGKAPKLLIYSASSLYSGVPSRFSGSRSGTDFTLTISSLQPEDFATYYCQQGYYYPFTFGQGTKVEIKR: 3
4. β10*-9.29 (designed binder, DARPin fusion expressed in E. coli, used as lysate; also called DARPin 9.29 with N-terminal β10*) MVSGWRLFKKISGGGSGHHHHHHHHGGGSGGSDLGKKLLEAARAGQDDEVRILMANGADVNAHDFYGITPLHLAANFGHLEIVEVLLKHGADVNAFDYDNTPLHLAADAGHLEIVEVLLKYGADVNASDRDGHTPLHLAAREGHLEIVEVLLKNGADVNAQDKFGKTPFDLAIDNGNEDIAEVLQKAA: 4
5. 73JH-β10* (Fab, V domains shown, Fab fusion expressed in E. coli, used as lysate; also called 73J Fab with β10* at the C-terminus of the heavy chain) VH: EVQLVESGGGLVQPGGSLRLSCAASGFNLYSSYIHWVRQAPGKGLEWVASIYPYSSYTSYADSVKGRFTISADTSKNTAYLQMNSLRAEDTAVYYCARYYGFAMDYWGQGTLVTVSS VL: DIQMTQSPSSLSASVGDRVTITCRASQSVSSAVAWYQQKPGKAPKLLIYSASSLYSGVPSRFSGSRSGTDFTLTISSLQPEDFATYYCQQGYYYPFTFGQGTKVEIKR: 7
